All values here come from ChEMBL document CHEMBL5291721.

Record type: AC50 measurement. Applies to: UniProt:P23975
Sequence (P23975 whole entry): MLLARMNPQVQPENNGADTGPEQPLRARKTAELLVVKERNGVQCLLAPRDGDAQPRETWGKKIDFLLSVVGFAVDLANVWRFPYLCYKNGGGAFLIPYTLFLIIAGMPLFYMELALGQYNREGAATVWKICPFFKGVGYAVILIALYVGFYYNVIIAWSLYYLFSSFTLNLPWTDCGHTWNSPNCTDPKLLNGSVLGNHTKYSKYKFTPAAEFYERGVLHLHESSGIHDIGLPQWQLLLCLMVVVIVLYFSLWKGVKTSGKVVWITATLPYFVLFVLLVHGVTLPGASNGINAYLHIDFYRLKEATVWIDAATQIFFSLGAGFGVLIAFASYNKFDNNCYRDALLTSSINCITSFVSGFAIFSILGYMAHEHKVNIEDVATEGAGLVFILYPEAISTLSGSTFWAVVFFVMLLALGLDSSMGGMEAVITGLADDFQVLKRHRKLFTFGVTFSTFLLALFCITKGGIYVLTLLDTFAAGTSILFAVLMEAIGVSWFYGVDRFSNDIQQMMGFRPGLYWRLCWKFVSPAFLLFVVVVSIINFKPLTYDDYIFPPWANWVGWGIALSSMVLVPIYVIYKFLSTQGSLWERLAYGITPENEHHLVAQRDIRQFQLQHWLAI

[[record]]
molecule = "CCCCC(CC)CN1CN(CC(CC)CCCC)CC(C)(N)C1 (stereo not drawn)"
metric = "AC50"
valuemeasured = "7.93 µM"


The recorded AC50 for COc1cc(C)c2c(Oc3cccc(C(F)(F)F)c3)c(OC)cc(NC(C)CCCN)c2n1 (stereo not drawn) is 2.26 µM

get_value(item= `C=CC(=O)Nc1cccc(Oc2nc(Nc3ccc(N4CCN(C)CC4)cc3)nc3ccsc23)c1` , readout=AC50) returns 12.3 µM

Consider CC(C(=O)O)c1cccc(Oc2ccccc2)c1 (stereo not drawn) . Its measured AC50 is > 30 µM

The measured AC50 associated with `C[C@]12C=CC(=O)C=C1CC[C@H]1[C@@H]3C[C@@H](O)[C@](O)(C(=O)CO)[C@@]3(C)C[C@H](O)[C@@]12F` reads > 30 µM

Record summary for `COc1cccc(C(=O)CCN[C@@H](C)[C@H](O)c2ccccc2)c1` : reported AC50 = 2.65 µM

Reported AC50 ( `Cc1cc(=O)oc2cc(O)ccc12` ) = > 30 µM

In plain terms, `C[C@@H]1C[C@H]2[C@@H]3C[C@H](F)C4=CC(=O)C=C[C@]4(C)[C@H]3[C@@H](O)C[C@]2(C)[C@@]1(O)C(=O)CO` has a documented AC50 of > 30 µM
